Assay: Approximate solubility at RT by stepwise solvent addition
Type: physicochemical
Details: CPME, organic solvent or mixture, thermodynamic from solid, CPME, read-out: Solubility
Experimental: The approximate solubility of (S)-4-((2-methoxyethyl)(4-(5,6,7,8-tetrahydro-1,8-naphthyridin-2-yl)butyl)amino)-2-(quinazolin-4-ylamino)butanoic acid was determined at RT. Approximately 2 mg of solids were added into a 3-mL glass vial. Different solvents were then added stepwise (50-50-200-700 μL for each step) into the vials and stirred until the solids were dissolved or a total volume of 1 mL was reached. The approximate solubility of Form I was determined at RT. […]
ENDPOINT NAME: Solubility

Request: Fill in the blank: the reported Solubility of COCCN(CCCCc1ccc2c(n1)NCCC2)CC[C@H](Nc1ncnc2ccccc12)C(=O)O is ____.
Result: 2600 to 8700 µg/mL

* * *

Molecular target: recombinant human integrin αvβ6 (Homo sapiens, UniProt P06756+P18564)
Sequence (P06756 31-992 limits assumed): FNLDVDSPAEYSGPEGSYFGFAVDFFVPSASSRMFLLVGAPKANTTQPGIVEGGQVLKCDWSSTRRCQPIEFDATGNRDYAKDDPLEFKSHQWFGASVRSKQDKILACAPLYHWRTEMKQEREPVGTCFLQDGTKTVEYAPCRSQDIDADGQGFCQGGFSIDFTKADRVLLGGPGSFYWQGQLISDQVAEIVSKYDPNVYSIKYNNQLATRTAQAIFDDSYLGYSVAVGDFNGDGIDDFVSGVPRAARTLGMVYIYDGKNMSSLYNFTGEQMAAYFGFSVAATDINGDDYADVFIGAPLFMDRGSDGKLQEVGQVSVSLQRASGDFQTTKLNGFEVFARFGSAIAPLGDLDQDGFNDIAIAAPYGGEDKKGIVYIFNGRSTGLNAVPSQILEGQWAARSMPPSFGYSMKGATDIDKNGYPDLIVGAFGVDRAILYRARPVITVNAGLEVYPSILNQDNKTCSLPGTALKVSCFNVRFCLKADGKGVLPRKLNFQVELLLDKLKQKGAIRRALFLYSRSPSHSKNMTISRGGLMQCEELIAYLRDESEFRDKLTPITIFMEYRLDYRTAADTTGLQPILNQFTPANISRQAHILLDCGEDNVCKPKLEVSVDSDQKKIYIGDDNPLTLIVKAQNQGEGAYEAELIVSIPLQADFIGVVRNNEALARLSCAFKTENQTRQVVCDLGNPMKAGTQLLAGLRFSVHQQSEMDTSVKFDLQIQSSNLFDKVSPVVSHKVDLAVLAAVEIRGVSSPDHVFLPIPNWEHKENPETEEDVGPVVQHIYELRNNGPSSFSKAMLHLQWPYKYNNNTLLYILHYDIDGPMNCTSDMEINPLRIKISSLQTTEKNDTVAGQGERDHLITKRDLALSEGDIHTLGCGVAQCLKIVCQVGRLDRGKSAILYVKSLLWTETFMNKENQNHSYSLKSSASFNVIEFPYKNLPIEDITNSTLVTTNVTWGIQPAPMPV
Sequence (P18564 22-707 limits assumed): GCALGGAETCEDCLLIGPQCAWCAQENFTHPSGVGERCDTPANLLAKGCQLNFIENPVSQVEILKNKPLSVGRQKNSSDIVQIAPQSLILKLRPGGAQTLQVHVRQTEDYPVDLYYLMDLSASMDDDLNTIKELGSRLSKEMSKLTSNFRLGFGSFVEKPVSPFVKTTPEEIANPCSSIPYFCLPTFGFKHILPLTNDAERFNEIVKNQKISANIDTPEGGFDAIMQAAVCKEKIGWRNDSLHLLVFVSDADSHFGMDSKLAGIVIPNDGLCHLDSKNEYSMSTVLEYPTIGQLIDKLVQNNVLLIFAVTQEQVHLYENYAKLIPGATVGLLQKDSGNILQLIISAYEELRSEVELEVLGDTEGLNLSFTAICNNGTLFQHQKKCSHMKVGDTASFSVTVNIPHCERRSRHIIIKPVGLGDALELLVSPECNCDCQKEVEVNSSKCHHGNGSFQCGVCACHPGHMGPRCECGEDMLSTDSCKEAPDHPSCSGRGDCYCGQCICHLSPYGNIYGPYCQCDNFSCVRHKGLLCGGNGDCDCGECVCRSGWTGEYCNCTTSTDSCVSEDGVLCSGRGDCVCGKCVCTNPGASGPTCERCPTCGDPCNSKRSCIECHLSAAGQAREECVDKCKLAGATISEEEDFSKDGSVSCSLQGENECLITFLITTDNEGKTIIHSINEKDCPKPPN
Experiment: Solid phase integrin αvβ6 binding assay
Conditions: TGFβ1 LAP binding to coated integrin, four-parameter logistic regression; read-out: IC50 for αvβ6 integrin inhibition
ENDPOINT NAME: IC50

Request: Quick one: IC50 of COCCN(CCCCc1ccc2c(n1)NCCC2)CC[C@H](Nc1ncnc2ccccc12)C(=O)O ?
Result: < 50 nM

Attribution: patent US12637462B2
